Give half-life at 1 µM for every item shown.
- ASSAY NAME: Half life in rat liver microsomes at 1 uM by LC-MS/MS analysis

[in] # input compound: C[C@]12CC(=O)C[C@@H]1CC[C@@H]1[C@@H]2CC[C@]2(C)C(n3ccnc3)=CC[C@@H]12 ; wanted: its half-life at 1 µM
[out] 1 to 10 min

[in] For C[C@]12CCNC(=O)C=C1CC[C@@H]1[C@@H]2CC[C@]2(C)C(c3cncnc3)=CC[C@@H]12 , what is its reported half-life at 1 µM?
[out] 1 to 10 min

[in] Any idea what half-life at 1 µM was measured for Cc1cncc(C2=CC[C@H]3[C@@H]4CCN5C(=O)CCCC[C@]5(C)[C@H]4CC[C@]23C)c1 ?
[out] 1 to 10 min

[in] Requested field: half-life at 1 µM. Item: C[C@]12CCNC(=O)C=C1CC[C@@H]1[C@@H]2CC[C@]2(C)C(c3cnccn3)=CC[C@@H]12
[out] 1 to 10 min

[in] # input compound: CCc1cncc(C2=CC[C@H]3[C@@H]4CCN5CCCCC[C@]5(C)[C@H]4CC[C@]23C)c1 ; wanted: its half-life at 1 µM
[out] 1 to 10 min

[in] Given COc1cncc(C2=CC[C@H]3[C@@H]4CC[C@H]5CCOCC[C@]5(C)[C@H]4CC[C@]23C)c1 , state its recorded half-life at 1 µM.
[out] 1 to 10 min

[in] What does the data say about its half-life at 1 µM? Entry: Cc1cncc(C2=CC[C@H]3[C@@H]4CC(O)C5CCCC[C@]5(C)[C@H]4CC[C@]23C)c1 (stereo not given in full)
[out] 1 to 10 min

[in] Returns the measured half-life at 1 µM for the input compound. Input: CCc1cncc(C2=CC[C@H]3[C@@H]4CCC5=CC(=O)NCC[C@]5(C)[C@H]4CC[C@]23C)c1
[out] 10 to 60 min

[in] What measured half-life at 1 µM goes with C[C@]12CCNC(=O)C=C1CC[C@@H]1[C@@H]2CC[C@]2(C)C(n3cncn3)=CC[C@@H]12 ?
[out] 1 to 10 min

[in] Value lookup for half-life at 1 µM; key = C[C@]12CCCCC[C@@H]1CC[C@@H]1[C@@H]2CC[C@]2(C)C(n3ccnc3)=CC[C@@H]12
[out] 10 to 60 min

[in] What value of half-life at 1 µM has been reported for the following compound? CN1CC[C@@]2(C)C(=CC1=O)CC[C@H]1C3=CC=C(n4ccnc4)[C@@]3(C)CC[C@@H]12
[out] 10 to 60 min

[in] Item under review: C[C@]12CCNC(=O)C=C1CC[C@@H]1[C@@H]2CC[C@]2(C)C(n3ccnc3)=CC[C@@H]12 . Reported half-life at 1 µM?
[out] 10 to 60 min

[in] What value of half-life at 1 µM has been recorded for this entry: CN1CC[C@@]2(C)C(=CC1=O)CC[C@@H]1[C@@H]2CC[C@]2(C)C(n3ccnc3)=CC[C@@H]12
[out] 10 to 60 min

[in] Give the measured half-life at 1 µM of COc1cncc(C2=CC[C@H]3[C@@H]4CCC5=CC(=O)N(C)CC[C@]5(C)[C@H]4CC[C@]23C)c1 .
[out] 1 to 10 min

[in] May I ask what half-life at 1 µM has been recorded for C[C@]12CCOCC[C@@H]1CC[C@@H]1[C@@H]2CC[C@]2(C)C(c3cccnc3)=CC[C@@H]12 ?
[out] 1 to 10 min

----------
Provide the recorded inhibition at 20 h for the entries that follow.
- TARGET OR SYSTEM: CYP21 (steroid 21-hydroxylase) (Homo sapiens, UniProt P08686)
- Sequence (P08686 whole entry): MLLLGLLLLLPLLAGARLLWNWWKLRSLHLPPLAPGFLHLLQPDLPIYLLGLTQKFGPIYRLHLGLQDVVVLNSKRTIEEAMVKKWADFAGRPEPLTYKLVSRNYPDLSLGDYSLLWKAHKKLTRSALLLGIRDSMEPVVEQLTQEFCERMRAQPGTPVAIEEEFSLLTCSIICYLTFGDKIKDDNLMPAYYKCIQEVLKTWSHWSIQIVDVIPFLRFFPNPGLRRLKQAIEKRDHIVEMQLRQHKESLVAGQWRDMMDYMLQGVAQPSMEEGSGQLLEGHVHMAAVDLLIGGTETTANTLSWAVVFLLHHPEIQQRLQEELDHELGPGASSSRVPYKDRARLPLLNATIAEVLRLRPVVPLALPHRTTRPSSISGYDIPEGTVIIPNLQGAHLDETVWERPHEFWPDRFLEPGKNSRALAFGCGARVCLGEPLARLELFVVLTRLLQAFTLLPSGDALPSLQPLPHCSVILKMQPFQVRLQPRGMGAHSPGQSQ
- ASSAY NAME: Inhibition of human CYP21 transfected in HEK293 cells assessed as decrease in conversion of progesterone to 11-deoxycorticosterone preincubated for 5 hrs followed by progesterone addition measured after 20 hrs by ELISA
- Assay type: cell-based
- Set-up: concentration or dose not given beside the values
- ASSAY CONTEXT: HEK293 cells transfected with human CYP21, probe progesterone

[in] Item CCOc1cncc(C2=CC[C@H]3[C@@H]4CC[C@H]5C[C@@H](OC)CC[C@]5(C)[C@H]4CC[C@]23C)c1 has what recorded inhibition at 20 h?
[out] 10 to 50%

[in] Can you look up the measured inhibition at 20 h of CCc1ccncc1C1=CC[C@H]2[C@@H]3CC[C@H]4CC(=O)NCC[C@]4(C)[C@H]3CC[C@]12C for me?
[out] 10 to 50%

[in] inhibition at 20 h lookup needed for C[C@]12CCNC(=O)C=C1C(F)C[C@@H]1[C@@H]2CC[C@]2(C)C(c3cccnc3)=CC[C@@H]12 (some centres undefined) , thanks.
[out] ≥ 50%

[in] What does the data say about its inhibition at 20 h? Entry: C[C@]12CC[C@H](O)CC1=CC[C@@H]1[C@@H]2CC[C@]2(C)C(c3cccnc3F)=CC[C@@H]12
[out] ≥ 50%

----------
- ASSAY NAME: Half life in human liver microsomes at 1 uM by LC-MS/MS analysis
I'd be grateful if you could share measured half-life at 1 µM for these entries.

[in] Look up half-life at 1 µM: C[C@]12CC[C@H]3[C@@H](CCC4=CC(=O)CC[C@@]43C)C1=CC=C2c1cncnc1
[out] 1 to 50 min

[in] Could you tell me which half-life at 1 µM is on file for C[C@]12CCNC(=O)C=C1CC[C@@H]1[C@@H]2CC[C@]2(C)C(n3ccnc3)CC[C@@H]12 (stereo partly drawn) ?
[out] ≥ 50 min

[in] Name the reported half-life at 1 µM value associated with the compound Cc1cncc(C2=CC[C@H]3[C@@H]4CCC5=CC(=O)NCC[C@]5(C)[C@H]4CC[C@]23C)c1
[out] 10 to 60 min

[in] Query: half-life at 1 µM; subject: C[C@]12CCNC(=O)C=C1C1CC1[C@@H]1[C@@H]2CC[C@]2(C)C(c3cccnc3)=CC[C@@H]12 (stereo partly drawn)
[out] 1 to 50 min

[in] What measured half-life at 1 µM goes with C[C@]12CC[C@H](O)CC1=CC[C@@H]1[C@@H]2CC[C@]2(C)C(c3cncc(Cl)c3)=CC[C@@H]12 ?
[out] 1 to 50 min

[in] Which measured half-life at 1 µM value corresponds to CC1C[C@@H]2[C@H](CC[C@]3(C)C(c4cccnc4)CC[C@@H]23)[C@@]2(C)CCNC(=O)C=C12 (stereo partly drawn) ?
[out] 1 to 50 min

[in] Reported half-life at 1 µM, compound C[C@]12CC[C@H]3[C@@H](CC=C4C[C@H](O)CC[C@@]43C)C1=CC=C2c1cccnc1 : ____
[out] 1 to 50 min

[in] For the compound Cc1cncc(C2=CC[C@H]3[C@@H]4CC[C@H]5COCCC[C@]5(C)[C@H]4CC[C@]23C)c1 , what half-life at 1 µM is on record?
[out] 1 to 10 min

[in] Quick check: half-life at 1 µM of C[C@]12CC[C@H]3[C@@H](CCC4=CC(=O)C=C[C@@]43C)C1=CC=C2c1cccnc1 ?
[out] 1 to 50 min

[in] // lookup half-life at 1 µM for COc1cncc(C2=CC[C@H]3[C@@H]4CCC5C[C@@H](NC(C)=O)CC[C@]5(C)[C@H]4CC[C@]23C)c1 (stereo partly drawn)
[out] 1 to 50 min

[in] Any idea what half-life at 1 µM was measured for C[C@]12CC[C@H]3[C@@H](CC[C@H]4C[C@@H](O)CC[C@@]43C)C1=CC=C2c1cccnc1 ?
[out] ≥ 50 min

[in] // lookup half-life at 1 µM for C[C@]12CC[C@H]3[C@@H](CC(F)[C@@]4(O)C[C@@H](O)CC[C@]34C)[C@@H]1CC=C2c1cccnc1 (stereo partly drawn)
[out] 1 to 50 min

[in] Sample COc1cncc(C2=CC=C3[C@@H]4CCC5=CC(=O)N(C)CC[C@]5(C)[C@H]4CC[C@]23C)c1 — what was its half-life at 1 µM?
[out] 1 to 50 min

[in] Using the record for C=C1C[C@@H]2[C@H](CC[C@]3(C)C(c4cncc(F)c4)=CC[C@@H]23)[C@@]2(C)C=CC(=O)C=C12 , report its half-life at 1 µM.
[out] 1 to 50 min

[in] Looking for the measured half-life at 1 µM of COc1cncc(C2=CC[C@H]3[C@@H]4CCN5C(=O)CCCC[C@]5(C)[C@H]4CC[C@]23C)c1 , can you help?
[out] 1 to 10 min

[in] What value of half-life at 1 µM has been reported for the following compound? C[C@]12CC[C@@H](NC(=O)C3CCC3)CC1=CC[C@@H]1[C@@H]2CC[C@]2(C)C(n3ccnc3)=CC[C@@H]12
[out] 1 to 50 min

[in] Name the recorded half-life at 1 µM for C[C@]12CC[C@H]3[C@@H](CC=C4C[C@@H](O)CC[C@@]43C)C1=CC=C2c1cccnc1 .
[out] 1 to 50 min

[in] Given the entry C[C@]12CC[C@H]3[C@@H](CC(O)C45CC4CC[C@]35C)C1=CC=C2c1cccnc1 (stereo partly drawn) , report its measured half-life at 1 µM.
[out] 1 to 50 min

Recorded values, source ChEMBL document CHEMBL3882724.
